- TEST SUMMARY: Brain/plasma ratio, brain levels in vivo
- CONDITION DESCRIPTION: brain and plasma
For each entry below, report its Kp value.
Number only, please.

What value of Kp has been recorded for this entry: O=C1CN(/N=C/c2ccc(-c3ccccc3)o2)C(=O)N1
0.5

// query Kp value for entry Cc1c(-c2ccc(/C=N/NC(N)=O)o2)ccc([N+](=O)[O-])c1C
1.6

* * *

- TARGET OR TEST SYSTEM: RyR (RyR2-expressing N2A cell line) (Mus musculus, UniProt E9Q401)
- Construct: tested using a RyR2-expressing N2A cell line; host or cells: N2a (Neuro-2a) cells
- Sequence (E9Q401 whole entry): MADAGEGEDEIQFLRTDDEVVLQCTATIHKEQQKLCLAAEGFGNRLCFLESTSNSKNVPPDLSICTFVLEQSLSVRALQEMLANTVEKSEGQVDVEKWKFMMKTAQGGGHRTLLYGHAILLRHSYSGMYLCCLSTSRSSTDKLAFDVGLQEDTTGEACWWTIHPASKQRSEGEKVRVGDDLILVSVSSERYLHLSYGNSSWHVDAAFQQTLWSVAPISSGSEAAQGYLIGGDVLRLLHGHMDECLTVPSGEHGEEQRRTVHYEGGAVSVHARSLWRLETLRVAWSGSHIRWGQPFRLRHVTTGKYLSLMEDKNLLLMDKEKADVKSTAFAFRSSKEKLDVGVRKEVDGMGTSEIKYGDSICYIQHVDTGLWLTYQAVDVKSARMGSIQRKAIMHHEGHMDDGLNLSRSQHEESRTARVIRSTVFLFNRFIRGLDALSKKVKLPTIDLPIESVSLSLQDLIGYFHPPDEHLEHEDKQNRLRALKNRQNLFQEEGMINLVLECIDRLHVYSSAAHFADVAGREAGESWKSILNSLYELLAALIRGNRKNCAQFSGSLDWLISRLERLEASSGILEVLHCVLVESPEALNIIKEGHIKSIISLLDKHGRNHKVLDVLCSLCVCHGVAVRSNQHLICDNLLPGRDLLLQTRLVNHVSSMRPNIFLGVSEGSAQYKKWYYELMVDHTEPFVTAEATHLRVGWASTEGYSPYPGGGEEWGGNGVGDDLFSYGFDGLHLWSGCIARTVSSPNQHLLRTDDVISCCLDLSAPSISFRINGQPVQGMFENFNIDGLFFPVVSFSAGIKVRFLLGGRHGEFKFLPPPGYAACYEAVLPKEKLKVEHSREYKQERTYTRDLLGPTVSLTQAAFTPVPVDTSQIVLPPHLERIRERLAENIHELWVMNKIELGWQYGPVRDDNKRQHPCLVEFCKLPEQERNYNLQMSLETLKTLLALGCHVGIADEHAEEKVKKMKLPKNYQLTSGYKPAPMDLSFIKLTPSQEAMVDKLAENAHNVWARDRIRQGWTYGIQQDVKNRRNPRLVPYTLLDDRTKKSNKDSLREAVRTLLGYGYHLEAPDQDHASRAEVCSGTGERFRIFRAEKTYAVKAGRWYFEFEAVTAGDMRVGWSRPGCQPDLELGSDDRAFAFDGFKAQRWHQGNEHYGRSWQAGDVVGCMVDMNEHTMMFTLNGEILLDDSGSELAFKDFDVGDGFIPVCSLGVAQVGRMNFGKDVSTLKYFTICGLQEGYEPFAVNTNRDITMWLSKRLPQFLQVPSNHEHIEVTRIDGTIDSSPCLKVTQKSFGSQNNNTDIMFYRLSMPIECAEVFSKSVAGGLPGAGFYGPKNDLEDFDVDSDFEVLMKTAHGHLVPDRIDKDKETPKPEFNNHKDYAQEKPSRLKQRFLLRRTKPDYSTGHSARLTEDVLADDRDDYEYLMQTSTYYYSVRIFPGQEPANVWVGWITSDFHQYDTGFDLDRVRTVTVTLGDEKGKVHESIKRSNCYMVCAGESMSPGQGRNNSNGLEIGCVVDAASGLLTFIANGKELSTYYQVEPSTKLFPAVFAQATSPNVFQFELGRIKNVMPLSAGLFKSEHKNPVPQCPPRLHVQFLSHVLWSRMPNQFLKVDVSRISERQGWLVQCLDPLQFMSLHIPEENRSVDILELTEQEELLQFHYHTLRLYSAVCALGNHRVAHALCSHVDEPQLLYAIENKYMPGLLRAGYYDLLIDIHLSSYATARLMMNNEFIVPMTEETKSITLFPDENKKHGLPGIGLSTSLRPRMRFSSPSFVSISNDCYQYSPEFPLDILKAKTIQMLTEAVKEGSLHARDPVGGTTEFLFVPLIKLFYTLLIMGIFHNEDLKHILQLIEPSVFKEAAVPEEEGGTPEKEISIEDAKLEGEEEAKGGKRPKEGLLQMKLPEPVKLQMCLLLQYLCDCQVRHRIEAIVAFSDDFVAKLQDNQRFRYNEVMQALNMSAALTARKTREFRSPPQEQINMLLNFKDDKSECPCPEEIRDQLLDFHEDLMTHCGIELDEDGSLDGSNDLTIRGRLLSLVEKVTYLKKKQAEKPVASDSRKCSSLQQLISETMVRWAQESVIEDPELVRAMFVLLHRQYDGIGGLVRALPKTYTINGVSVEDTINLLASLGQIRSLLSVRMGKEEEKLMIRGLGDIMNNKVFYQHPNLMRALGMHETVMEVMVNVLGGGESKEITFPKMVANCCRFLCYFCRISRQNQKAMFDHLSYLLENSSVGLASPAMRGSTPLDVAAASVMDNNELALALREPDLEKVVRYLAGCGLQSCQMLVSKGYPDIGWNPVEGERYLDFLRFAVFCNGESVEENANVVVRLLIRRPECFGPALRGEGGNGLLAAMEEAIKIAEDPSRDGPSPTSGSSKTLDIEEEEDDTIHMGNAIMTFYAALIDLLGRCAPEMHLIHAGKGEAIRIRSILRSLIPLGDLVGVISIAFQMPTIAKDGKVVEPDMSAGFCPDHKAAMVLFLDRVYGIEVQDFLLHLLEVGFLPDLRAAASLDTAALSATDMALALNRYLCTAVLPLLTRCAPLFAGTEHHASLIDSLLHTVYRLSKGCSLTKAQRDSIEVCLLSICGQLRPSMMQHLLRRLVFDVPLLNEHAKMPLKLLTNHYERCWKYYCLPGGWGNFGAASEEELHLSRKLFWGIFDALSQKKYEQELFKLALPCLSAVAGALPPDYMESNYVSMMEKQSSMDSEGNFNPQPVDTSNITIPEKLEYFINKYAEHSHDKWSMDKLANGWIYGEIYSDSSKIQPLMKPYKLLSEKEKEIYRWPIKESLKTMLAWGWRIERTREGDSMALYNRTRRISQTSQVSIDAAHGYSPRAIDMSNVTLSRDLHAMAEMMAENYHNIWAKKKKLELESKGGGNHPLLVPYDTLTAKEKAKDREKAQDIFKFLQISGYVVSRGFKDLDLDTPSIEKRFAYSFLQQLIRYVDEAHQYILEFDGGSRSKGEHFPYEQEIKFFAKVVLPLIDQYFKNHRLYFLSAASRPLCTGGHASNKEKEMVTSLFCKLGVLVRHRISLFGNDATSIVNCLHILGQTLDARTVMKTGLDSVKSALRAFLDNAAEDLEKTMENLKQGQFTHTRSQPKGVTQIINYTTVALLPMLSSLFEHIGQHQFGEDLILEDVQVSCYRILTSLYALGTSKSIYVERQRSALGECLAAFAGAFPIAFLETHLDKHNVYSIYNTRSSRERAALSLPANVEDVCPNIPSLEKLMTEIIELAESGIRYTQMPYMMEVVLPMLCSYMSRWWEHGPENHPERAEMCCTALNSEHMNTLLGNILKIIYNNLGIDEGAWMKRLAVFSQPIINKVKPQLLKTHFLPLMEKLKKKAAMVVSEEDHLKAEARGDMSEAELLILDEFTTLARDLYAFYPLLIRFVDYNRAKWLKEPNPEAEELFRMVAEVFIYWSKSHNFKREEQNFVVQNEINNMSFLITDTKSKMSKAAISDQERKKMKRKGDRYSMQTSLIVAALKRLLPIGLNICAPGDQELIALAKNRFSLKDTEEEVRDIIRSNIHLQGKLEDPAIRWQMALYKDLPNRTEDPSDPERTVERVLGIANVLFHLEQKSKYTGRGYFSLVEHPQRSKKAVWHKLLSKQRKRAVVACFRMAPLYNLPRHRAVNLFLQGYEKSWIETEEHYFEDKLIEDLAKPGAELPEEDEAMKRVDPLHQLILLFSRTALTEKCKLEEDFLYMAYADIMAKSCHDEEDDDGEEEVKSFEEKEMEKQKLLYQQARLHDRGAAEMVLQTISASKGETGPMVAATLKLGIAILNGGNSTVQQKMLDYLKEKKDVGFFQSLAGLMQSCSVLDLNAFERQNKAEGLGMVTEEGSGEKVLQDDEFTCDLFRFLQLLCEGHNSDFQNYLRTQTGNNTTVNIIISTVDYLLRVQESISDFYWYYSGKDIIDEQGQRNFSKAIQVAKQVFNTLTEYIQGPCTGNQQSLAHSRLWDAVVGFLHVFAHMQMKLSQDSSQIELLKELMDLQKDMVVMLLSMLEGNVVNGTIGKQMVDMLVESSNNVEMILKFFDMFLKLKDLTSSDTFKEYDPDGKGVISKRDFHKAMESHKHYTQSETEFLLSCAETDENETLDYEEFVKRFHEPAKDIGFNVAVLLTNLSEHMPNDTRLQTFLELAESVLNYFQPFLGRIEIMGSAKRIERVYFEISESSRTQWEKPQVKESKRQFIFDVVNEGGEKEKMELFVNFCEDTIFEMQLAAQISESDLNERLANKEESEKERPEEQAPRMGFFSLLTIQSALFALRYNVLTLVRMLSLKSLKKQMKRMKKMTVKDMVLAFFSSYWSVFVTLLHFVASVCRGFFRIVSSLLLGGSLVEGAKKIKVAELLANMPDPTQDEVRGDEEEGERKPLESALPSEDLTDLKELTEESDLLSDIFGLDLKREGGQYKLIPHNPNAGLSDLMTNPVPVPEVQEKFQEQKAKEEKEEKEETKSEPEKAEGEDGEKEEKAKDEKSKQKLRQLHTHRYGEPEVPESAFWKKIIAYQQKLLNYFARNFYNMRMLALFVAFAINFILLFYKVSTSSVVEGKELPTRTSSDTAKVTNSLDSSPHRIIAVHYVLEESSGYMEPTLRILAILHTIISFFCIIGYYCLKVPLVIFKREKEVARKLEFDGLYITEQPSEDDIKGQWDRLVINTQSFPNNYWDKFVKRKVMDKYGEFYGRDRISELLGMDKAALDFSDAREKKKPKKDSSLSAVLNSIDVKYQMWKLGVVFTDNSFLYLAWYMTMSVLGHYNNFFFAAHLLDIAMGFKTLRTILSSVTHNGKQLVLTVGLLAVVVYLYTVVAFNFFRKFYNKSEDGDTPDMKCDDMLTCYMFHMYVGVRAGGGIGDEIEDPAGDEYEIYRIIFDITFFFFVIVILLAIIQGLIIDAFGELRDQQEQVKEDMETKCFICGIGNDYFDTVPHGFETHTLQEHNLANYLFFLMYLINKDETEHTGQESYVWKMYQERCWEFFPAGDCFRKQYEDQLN
- TEST SUMMARY: RyR-evoked (caffeine) calcium response in N2A cells, 2-photon fura-2 imaging
- Type: cell-based
- CONDITION DESCRIPTION: caffeine-stimulated, compounds tested at 10 μM
EXPERIMENTAL ENDPOINT: Ca^2+ Inc (Ca^2+ increase over baseline) (fold)
Entry rule: numbers only, all in fold.

Look up Ca^2+ Inc (Ca^2+ increase over baseline) with RyR (RyR2-expressing N2A cell line) (Mus musculus, UniProt E9Q401) for this compound: CC(=O)N/N=C/c1ccc(-c2cccc([N+](=O)[O-])c2)o1
1.06

Give recorded Ca^2+ Inc (Ca^2+ increase over baseline) with RyR (RyR2-expressing N2A cell line) (Mus musculus, UniProt E9Q401) for the following compound: O=C(N/N=C/c1ccc(-c2cccc([N+](=O)[O-])c2)o1)c1ccccn1
1.38

// fetch RyR (RyR2-expressing N2A cell line) (Mus musculus, UniProt E9Q401) Ca^2+ Inc (Ca^2+ increase over baseline) for O=C1CN(/N=C/c2ccc(-c3ccccc3)o2)C(=O)N1
1.43

* * *

- TARGET OR TEST SYSTEM: RyR (RyR2-expressing N2A cell line) (Mus musculus, UniProt E9Q401)
- Construct: tested using a RyR2-expressing N2A cell line; host or cells: N2a (Neuro-2a) cells
- TEST SUMMARY: RyR-evoked (caffeine) calcium response in N2A cells, 2-photon fura-2 imaging
- Type: cell-based
- CONDITION DESCRIPTION: caffeine-stimulated, compounds tested at 10 μM
I'd be grateful if you could share measured Ca^2+ Inc (Ca^2+ increase over baseline) for these entries.
Provide the reading as a plain figure in fold.

# Ca^2+ Inc (Ca^2+ increase over baseline) lookup, item Cc1c(-c2ccc(/C=N/NC(N)=O)o2)ccc([N+](=O)[O-])c1C
2.38

Field request: Ca^2+ Inc (Ca^2+ increase over baseline) | item: CN1CCN(C(=O)N/N=C/c2ccc(-c3ccc([N+](=O)[O-])cc3Cl)o2)CC1
4.25

Given O=C1CN(/N=C/c2ccc(-c3ccc([N+](=O)[O-])cc3)o2)C(O)=N1 , state its recorded Ca^2+ Inc (Ca^2+ increase over baseline).
1.96

* * *

- TEST SUMMARY: Log P (Table 1)
- Type: physicochemical
EXPERIMENTAL ENDPOINT: logP

What logP value was documented for this compound, O=C(N/N=C/c1ccc(-c2cccc([N+](=O)[O-])c2)o1)c1ccccn1 [RD11] ?
3

Which logP is listed for O=C(N/N=C/c1ccc(-c2ccc([N+](=O)[O-])cc2)o1)c1ccc(Cl)cc1Cl [RD83] ?
5.5

Would you kindly share the measured logP for CC(=O)N/N=C/c1ccc(-c2cccc([N+](=O)[O-])c2)o1 [RD09] ?
2.5

Suppose we examine the compound O=C1CN(/N=C/c2ccc(-c3ccccc3)o2)C(=O)N1 [RD05] ; what logP value has been reported?
1.8

Endpoint output: logP of CN1CCN(C(=O)N/N=C/c2ccc(-c3ccc([N+](=O)[O-])cc3Cl)o2)CC1 [RD10] . Value?
3.4

Would you mind telling me what logP value was observed for Cc1c(-c2ccc(/C=N/NC(N)=O)o2)ccc([N+](=O)[O-])c1C [RD14] ?
3.2

Query (compound): O=C(N/N=C/c1ccc(-c2ccc(Br)cc2)o1)c1ccc([N+](=O)[O-])cc1 [RD77] ; field requested: logP
5

Any idea what logP was measured for O=C(N/N=C/c1ccc(-c2ccc([N+](=O)[O-])cc2Cl)o1)Nc1ccccc1 [RD54] ?
5.1

Entry O=C(N/N=C/c1ccc(-c2cccc(Cl)c2Cl)o1)c1ccccn1 [RD91] : reported logP = ?
4.4

Origin of measurements: patent US10011578B2
